- STUDY_SYSTEM: T1, human ROR1 on the surface of tumor cells (human, UniProt Q01973 30-937)
- T1 construct: whole, on cells; also called ROR1 on the cell surface; tumor cell ROR1
- T1 sequence (Q01973 30-937): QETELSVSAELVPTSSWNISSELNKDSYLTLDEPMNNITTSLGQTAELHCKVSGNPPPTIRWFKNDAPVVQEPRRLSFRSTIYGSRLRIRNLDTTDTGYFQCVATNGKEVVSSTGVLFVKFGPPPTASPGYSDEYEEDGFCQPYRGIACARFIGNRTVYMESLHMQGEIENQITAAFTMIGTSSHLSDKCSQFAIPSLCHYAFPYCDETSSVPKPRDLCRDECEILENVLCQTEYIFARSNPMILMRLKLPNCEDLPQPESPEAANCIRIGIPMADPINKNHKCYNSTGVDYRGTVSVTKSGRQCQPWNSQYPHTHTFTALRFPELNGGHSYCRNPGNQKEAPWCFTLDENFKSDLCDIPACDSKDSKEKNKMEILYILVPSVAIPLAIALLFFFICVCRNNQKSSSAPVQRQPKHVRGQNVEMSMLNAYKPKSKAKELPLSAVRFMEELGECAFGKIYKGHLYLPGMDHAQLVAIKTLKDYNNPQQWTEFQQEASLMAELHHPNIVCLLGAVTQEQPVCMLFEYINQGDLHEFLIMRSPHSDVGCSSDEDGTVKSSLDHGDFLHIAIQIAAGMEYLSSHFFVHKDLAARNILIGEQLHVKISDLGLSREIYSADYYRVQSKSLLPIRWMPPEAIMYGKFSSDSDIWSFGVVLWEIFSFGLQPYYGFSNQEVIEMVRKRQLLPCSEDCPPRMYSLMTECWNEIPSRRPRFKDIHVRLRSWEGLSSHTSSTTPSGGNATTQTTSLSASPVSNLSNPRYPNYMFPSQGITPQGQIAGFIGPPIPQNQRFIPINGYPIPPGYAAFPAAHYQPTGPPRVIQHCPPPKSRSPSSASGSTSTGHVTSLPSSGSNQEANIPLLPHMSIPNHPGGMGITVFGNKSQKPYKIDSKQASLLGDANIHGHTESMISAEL
- ASSAY_EXPLANATION: FACS, MDA-MB-231 cells

{"columns": ["BINDER", "binding result"],
 "data": [
  ["Hu005-35 (antibody, V domains shown, Humanized) VH: EVQLVESGGGLVKPGGSLRLSCAASGFTFNSYAMSWVRQTPEKRLEWVATISDAGSYTYYPDNEKGRFTISRDNAKNNLYLQMNSLRAEDTAIYYCVRGGYYYNLYAMDYWGQGTLVTVSS VL: DIVLTQSPDSLAVSLGERATINCKASQSVSFPGTSLMHWYQQKPGQQPKLLIYRASNLEAGVPDRFSGSGSRTDFTLTISSLQAEDVAVYYCQQSREYPWTFGGGTKVEIK", "binds"],
  ["Hu001-02 (antibody, V domains shown, Humanized; also called Hu001-2) VH: QVQLVQSGAEVKKPGASVKVSCKASGYTFTDYNLHWVRQAPGQGLEWMGYINPNHDATSYNQKFQGRVTMTRDTSTSTVYMELSSLRSEDTAVYYCARRVRTGTGLDDWGQGTTVTVSS VL: DVVMTQSPLSLPVTLGQPASISCRSSHNIVHTNANTYLEWYQQRPGQSPRLLIYKVSNRFSGVPDRFSGSGSGTDFTLKISRVEAEDVGVYYCFQGSRFPYTFGGGTKVEIK", "binds"],
  ["Hu001-06 (antibody, V domains shown, Humanized; also called Hu001-6) VH: QVQLVQSGAEVKKPGASVKVSCKASGYTFTDYNLHWVRQAPGQGLEWMGYINPNHDATSYNQKFQGKVTMTVDTSTSTVYMELSSLRSEDTAVYYCARRVRTGTGLDDWGQGTTVTVSS VL: DVVMTQSPLSLPVTLGQPASISCRSSHNIVHTNANTYLEWYQQRPGQSPKLLIYKVSNRFSGVPDRFSGSGSGTDFTLKISRVEAEDVGVYYCFQGSRFPYTFGGGTKVEIK", "binds"]
]}
